Data provenance: paper PMC6175577

- system: T1, TOPBP1-BRCT4,5 segment ( (human and chicken TOPBP1 …))
- T1 chain: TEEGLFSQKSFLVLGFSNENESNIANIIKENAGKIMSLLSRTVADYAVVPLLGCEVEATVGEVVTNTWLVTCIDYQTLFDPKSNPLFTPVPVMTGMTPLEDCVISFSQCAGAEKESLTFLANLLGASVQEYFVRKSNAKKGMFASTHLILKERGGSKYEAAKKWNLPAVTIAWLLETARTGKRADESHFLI
- test method notes: FP
Where no end group is shown, it is not given here. [ ]: non-standard residue; d: D form. pS = N[C@@H](COP(=O)(O)O)C(=O)O
test readout: Kd (µM)

| binder | value unit | reading |
| --- | --- | --- |
| fluorescein-GYGDTDFVPP[pS]PEEIISA (also: phosphoserine at 304 (S11 or S17)) [BLM pS304 fluorescein-labelled phosphopeptide] | µM | 3.46 |
